Sourced from patent US10035777B2

# SYSTEM: GST-Xa-hAAK1 (Homo sapiens (Human), UniProt Q2M2I8)
# Sequence (Q2M2I8 whole entry): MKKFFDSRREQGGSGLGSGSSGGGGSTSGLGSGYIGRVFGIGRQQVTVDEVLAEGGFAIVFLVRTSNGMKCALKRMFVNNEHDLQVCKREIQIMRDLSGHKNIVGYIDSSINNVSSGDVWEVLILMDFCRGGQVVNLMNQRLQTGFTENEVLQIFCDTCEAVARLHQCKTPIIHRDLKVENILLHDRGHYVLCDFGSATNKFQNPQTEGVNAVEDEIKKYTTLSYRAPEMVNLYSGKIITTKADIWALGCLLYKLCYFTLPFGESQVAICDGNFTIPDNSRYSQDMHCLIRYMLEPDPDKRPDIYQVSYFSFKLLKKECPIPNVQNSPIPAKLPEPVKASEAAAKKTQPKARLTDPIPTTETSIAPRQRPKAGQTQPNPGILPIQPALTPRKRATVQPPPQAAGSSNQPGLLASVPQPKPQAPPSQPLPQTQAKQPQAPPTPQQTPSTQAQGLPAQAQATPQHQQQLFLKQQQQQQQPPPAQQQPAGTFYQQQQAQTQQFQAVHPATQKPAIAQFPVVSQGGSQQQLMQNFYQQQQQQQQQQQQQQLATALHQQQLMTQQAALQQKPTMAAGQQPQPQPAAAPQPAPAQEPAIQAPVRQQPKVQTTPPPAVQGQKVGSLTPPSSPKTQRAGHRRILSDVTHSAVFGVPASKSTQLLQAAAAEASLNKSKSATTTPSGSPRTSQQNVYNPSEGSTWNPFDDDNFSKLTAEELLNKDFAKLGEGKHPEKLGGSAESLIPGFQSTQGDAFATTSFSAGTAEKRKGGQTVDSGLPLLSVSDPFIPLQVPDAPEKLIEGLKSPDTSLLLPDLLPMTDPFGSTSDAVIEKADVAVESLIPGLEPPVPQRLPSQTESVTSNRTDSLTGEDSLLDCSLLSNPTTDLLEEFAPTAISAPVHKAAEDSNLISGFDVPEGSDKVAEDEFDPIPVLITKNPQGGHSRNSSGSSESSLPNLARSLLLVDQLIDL
# PROTOCOL_TEXT: biochemical
pIC50: −log10 of the molar value.
# Lookup of reported pIC50 keyed by entry
PROPERTY_NAME: pIC50

| MOLECULE | TEST_VALUE |
| --- | --- |
| CN[C@H](CC(C)C)c1nc2cc(-c3ccncc3)ccc2[nH]1 | 7.92 |
| N[C@@H](c1nc2cc(-c3ccncc3)ccc2[nH]1)C1CC1 | 6.64 |
| CC(c1nc2cc(-c3ccncc3)ccc2[nH]1)N1CCOCC1 (centres unmarked) | 6.23 |
| CC(C)CC(N)c1nc2ccc(-c3ccncc3)cc2s1 (centres unmarked) | 7.36 |
| c1cc(-c2ccc3[nH]c(CC4CCCCC4)nc3c2)ccn1 | 6.97 |
| COc1cc2[nH]c(CC3CCCC3)nc2cc1-c1cnco1 | 7.24 |
| CC1CCCC(c2nc3ccc(-c4ccncc4)cc3[nH]2)C1 (centres unmarked) | 5.84 |
| COc1cc(-c2ccncc2)cc2nc([C@H](N)CC(C)C)[nH]c12 | 7.28 |
| CCn1c([C@H](N)CC(C)C)nc2ccc(-c3ccncc3)cc21 | 6.97 |
| CC(C)CCc1nc2ccc(-c3cnco3)cc2o1 | 5.99 |
| N[C@@H](c1nc2cc(-c3ccncc3)ccc2[nH]1)C1CCOCC1 | 6.36 |
| COc1cc2nc([C@H](N)CC(C)C)[nH]c2cc1-c1ccncc1 | 6.31 |
| COc1cc2[nH]c(C(N)CC3CCCC3)nc2cc1-c1cnco1 (centres unmarked) | 7.15 |
| CC(C)C[C@@H](N)c1nc2ccc(-c3ccncc3)cc2n1CC(F)(F)F | 7.72 |
| CN[C@H](CC(C)C)c1nc2cc(-c3ccnc(N(C)C)c3)ccc2[nH]1 | 6.61 |
| COc1cc2[nH]c([C@H](N)C3CCCC3)nc2cc1-c1ccncc1 | 5.74 |
| Cn1nc(C(C)(C)C)cc1-c1nc2ccc(-c3ccncc3)cc2[nH]1 | 5.76 |
| CC(C)N1CC(c2nc3ccc(-c4ccncc4)cc3[nH]2)CC1=O (centres unmarked) | 6.11 |
| CC(C)OCc1nc2ccc(-c3ccncc3)cc2[nH]1 | 6.11 |
| CC(C(N)c1nc2ccc(-c3ccncc3)cc2[nH]1)C(F)(F)F (single isomer, unassigned) | 6.63 |
| CC(C)C[C@@H](NC(=O)C(F)(F)F)c1nc2cc(-c3ccncc3)ccc2[nH]1 | 6.16 |
| CC(C)C[C@@H](N)c1nc2cc(-c3cc[nH]n3)ccc2[nH]1 | 7.25 |
| COc1cc2[nH]c([C@H](N)C3CCCC3)nc2cc1-c1cnco1 | 7.30 |
| CC1(C)CC1c1nc2ccc(-c3ccncc3)cc2[nH]1 (centres unmarked) | 6.47 |
| CC(C)C[C@@H](N)c1nc2cc(-c3ccncc3)ccc2[nH]1 | 7.43 |
| CC(C)C[C@H](N)c1nc2cc(-c3ccncc3)ccc2s1 | 6.94 |
